# Target: T1, recombinant human EGFR extracellular domain with 6xHis (human, UniProt P00533 25-645)
# T1 construct: In-house produced; also called 6xHis EGFR ECD; soluble human EGFR ECD; not shown: 6xHis tag
# Run Description: SPR competition, competitor Vectibix
Endpoint Name: % inhibition
Report the figure along with its unit, number first.

Q: Fill in: % inhibition of antibody 992 (antibody, human IgG1, kappa, V domains shown, Chimeric mouse/human IgG1 kappa; the VL entry includes the human kappa constant region) VH: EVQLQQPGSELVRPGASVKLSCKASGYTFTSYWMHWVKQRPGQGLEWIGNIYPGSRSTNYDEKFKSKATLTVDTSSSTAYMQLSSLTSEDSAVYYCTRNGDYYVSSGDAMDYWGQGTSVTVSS VL: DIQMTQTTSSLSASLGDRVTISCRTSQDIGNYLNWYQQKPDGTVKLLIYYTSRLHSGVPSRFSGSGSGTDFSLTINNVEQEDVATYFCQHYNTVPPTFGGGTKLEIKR is ___
Ans: 125%

Reference source: patent US20110135636A1
